# measurement_notes: qHTS assay to identify small molecule antagonists of the estrogen related receptor signaling pathway with the pleiotropic PPARgamma coactivator (PGC) from Tox21 10K library - cell viability counter screen (AID 1224840); further: nearly all actives have a fitted effect of over 40% in size
# condition_details: PGC/ERR reporter cells viability, CellTiter-Fluor, 17.5 h; series mostly up to 92.4 µM
Results filed as inconclusive are left out. Calls of active or inactive are those of the source. The call rests on the fitted dose curve; in most records, active means well fitted cell-killing curve with a large enough effect in the repeat runs (not every such curve was filed as active); inconclusive means weak or mixed curves, or effect the other way; inactive means no such curve, though single readings can be large or run the other way.
Pick from true (active), false (inactive) when you respond.

# example entries with known answers
CCCCCCCCCCCCN1CCCC1=O: false
CN1CCN(CCCN2c3ccccc3Sc3ccc(C(F)(F)F)cc32)CC1: true
[Cl][Sc]([Cl])[Cl]: false

Now turn to the next molecule.
For CCSCC , what call appears in the results of this test?
false

---

# measurement_notes: qHTS assay for small molecules that induce genotoxicity in human embryonic kidney cells expressing luciferase-tagged ATAD5 - cell viability (AID 651634); further: nearly all actives have a fitted effect of over 25% in size; further: potency means the concentration at half of the fitted maximal effect
# condition_details: HEK293T ATAD5-luc cells viability, CellTiter-Fluor, 15.5 h; series mostly up to 83.3 µM
Results filed as inconclusive are left out. Activity calls are given as the source filed them. Calls follow the shape of the full dose curve.
readout_name: Potency

CC/C=C\C/C=C\C/C=C\C/C=C\C/C=C\CCCC(=O)O: inactive
CN=C(N)NCCC[C@H](N)C(=O)O: inactive
CCCC(=O)c1cc(O)c(O)cc1O: 30.6 µM (active)
CCCCCCOC(=O)c1cccnc1: inactive
C=C1[C@H](CO)[C@@H](O)C[C@@H]1n1cnc2c(=O)[nH]c(N)nc21: inactive

Now take the following molecule into account.
Hello, please tell me recorded Potency for this one: CN(C)CCC(O)(c1ccccc1)c1ccccc1Cl (stereo unspecified)
inactive

---

# measurement_notes: qHTS assay to identify small molecule antagonists of the constitutive androstane receptor (CAR) signaling pathway - cell viability counter screen (AID 1224837); further: nearly all actives have a fitted effect of over 45% in size
# condition_details: HepG2-CYP2B6-hCAR viability, CellTiter-Fluor, 23 h, co-treated with 50 nM CITCO; series mostly up to 92.4 µM
Results filed as inconclusive are left out. Active and inactive are the calls of the source. Calls follow the shape of the dose curve; as a rule, active = well fitted cell-killing curve with a large enough effect in the repeat runs; inconclusive = weak or mixed curves, or effect the other way; inactive = flat fitted curve, though single readings scatter.
Pick from class 1 for active, class 0 for inactive when you respond.

# example entries with known answers
Cc1ccc2nc(-c3ccc(N)cc3)sc2c1S(=O)(=O)O: class 0
O=C(Cl)c1ccc(Cl)cc1Cl: class 0
CCC1(C)C(=O)N(Cl)C(=O)N1Cl (centres undefined): class 0
CCN(CCC#N)c1ccc(N=Nc2ccc([N+](=O)[O-])cc2)cc1: class 0
CCn1c2ccccc2c2ccccc21: class 0

For CO[Si](OC)(c1ccccc1)c1ccccc1 , what call appears in the results of this test?
class 0

For C=Cc1ccncc1 , what call appears in the results of this test?
class 0

For N#Cc1nc(Cl)c(Cl)c(Cl)c1Cl , what call appears in the results of this test?
class 1

For C=COCCCC , what call appears in the results of this test?
class 0

For ClC(c1ccccc1)(c1ccccc1)c1ccccc1 , what call appears in the results of this test?
class 0

For c1ccc(-c2nc3ccccc3[nH]2)cc1 , what call appears in the results of this test?
class 0

For CCCCCCCCCCCCN1CCCC1=O , what call appears in the results of this test?
class 0

For COc1ccc(OC)c(N=Nc2c(O)ccc3ccccc23)c1 , what call appears in the results of this test?
class 1

For CCCOC(=O)c1ccc(O)cc1 , what call appears in the results of this test?
class 0

For Brc1cc(Br)cc(Br)c1 , what call appears in the results of this test?
class 0

For CN1CCN(CCCN2c3ccccc3Sc3ccc(C(F)(F)F)cc32)CC1 , what call appears in the results of this test?
class 0

For O=C1CCC(=O)N1 , what call appears in the results of this test?
class 0

For Clc1ccc2c(Cl)ccnc2c1 , what call appears in the results of this test?
class 0

For C=CCc1cc(S(=O)(=O)c2ccc(O)c(CC=C)c2)ccc1O , what call appears in the results of this test?
class 0

For C/C(=N\[Si](C)(C)C)O[Si](C)(C)C , what call appears in the results of this test?
class 0

For CN1CC[C@H](c2c(O)cc(O)c3c(=O)cc(-c4ccccc4Cl)oc23)[C@H](O)C1 , what call appears in the results of this test?
class 1

For O=C1OC(=O)c2cc(-c3ccc4c(c3)C(=O)OC4=O)ccc21 , what call appears in the results of this test?
class 0

For COc1cc(/C=C/C(=O)CC(=O)/C=C/c2ccc(O)c(OC)c2)ccc1O , what call appears in the results of this test?
class 1

For Cc1c[nH]c(=O)[nH]c1=O , what call appears in the results of this test?
class 0

For CC(C)=CCC[C@H](C)CC=O , what call appears in the results of this test?
class 0

For COc1cc([C@@H]2c3cc4c(cc3[C@@H](O[C@@H]3O[C@@H]5CO[C@@H](C)O[C@H]5[C@H](O)[C@H]3O)[C@H]3COC(=O)[C@H]23)OCO4)cc(OC)c1O , what call appears in the results of this test?
class 0

For O=C1CCCCCCCCCCCCCC1 , what call appears in the results of this test?
class 0

For O=C1CCC/C=C\CCCCCCCCCC1 , what call appears in the results of this test?
class 0

For CCC(=O)OC/C=C(\C)CCC=C(C)C , what call appears in the results of this test?
class 0

For Oc1ccc2c(c1)CCC2 , what call appears in the results of this test?
class 0

For CC(=O)CC(N)=O , what call appears in the results of this test?
class 0

For O=C1OC2(c3ccccc31)c1ccc(O)c(Br)c1Oc1c2ccc(O)c1Br , what call appears in the results of this test?
class 0
